Every entry's value here was drawn from patent US20260297129A1.

# Assay Protocol: Protease stability in simulated intestinal fluids (FaSSIF) (Table 7)
# Format: in vitro ADME
# Test Settings: fassif with pancreatin, 240 min, 37° C., read-out: Remaining percentage of peptide compound, FaSSIF 240 (min)
# Description: Studies were carried out in simulated intestinal fluid (SIF) and simulated gastric fluid (SGF) to evaluate gastric stability of the peptide compounds disclosed herein. […] To 76 μL of the Pepsin-SGF buffer, 4 μL of the 20 μM peptide stock solution was added and incubated at 37° C. […] The samples were centrifuged for 20 minutes and an aliquot of the supernatant 100 μL were transferred to a LoBind-MTP plate and analyzed by LCMS/MS. […]
Numbered stars: 1 amine (or outer) side, 2 acyl side, 3 side chain; on linkers, the order of the positions; unused ones are H or OH. Bridge positions count the residues as written; N and C are the ends. Square brackets hold non-standard residues; d marks the D form. Peptide text beside a SMILES is read from it. * marks the point of attachment. Lys(Me,(CH2)4NMe(CH2)4CO) = CN(CCCCC(=O)[*:3])CCCCN(C)CCCC[C@H](N[*:1])C(=O)[*:2]; X3 = Cc1cccc2c(C[C@H](N[*:1])C(=O)[*:2])cn(C)c12; Trp(7-Me) = Cc1cccc2c(C[C@H](N)C(=O)O)c[nH]c12; NH(2-(3-pyridyl)ethyl) = c1cncc(CCN*)c1; 2Nal = N[C@@H](Cc1ccc2ccccc2c1)C(=O)O; d2Nal = N[C@H](Cc1ccc2ccccc2c1)C(=O)O; 3Pal = N[C@@H](Cc1cccnc1)C(=O)O; Aun = NCCCCCCCCCCC(=O)O; Thp = NC1(C(=O)O)CCOCC1; Me2NCH2CH2 = CN(C)CC*; Aib = CC(C)(N)C(=O)O; Sar = CNCC(=O)O
Mark each entry Met if its remaining at 4 h, 1 µM sits below 90%, and Not met for all others.

Compound	Assigned Label
Cc1cccc2c(C[C@@H]3NC(=O)CCCCCCCCCCNC(=O)CC[C@@H](C(=O)N[C@@H](CC(N)=O)C(=O)N[C@@H](Cc4cccnc4)C(=O)N(C)CC(N)=O)NC(=O)C(C)(C)NC(=O)[C@@H](Cc4ccc5ccccc5c4)NC(=O)[C@H](Cc4ccc(OCCN(C)C)cc4)NC(=O)C4(CCOCC4)NC(=O)[C@H](CCC(N)=O)NC3=O)c[nH]c12 [compound 4] ([Aun][Trp(7-Me)]Q[Thp]Y(Me2NCH2CH2)[d2Nal][Aib]EN[3Pal][Sar]-NH2; lactam N-8)	Met
Cc1cccc2c(C[C@@H]3NC(=O)CCCCN(C)CCCCN(C)CCCC[C@@H](C(=O)NCC(=O)NCCc4cccnc4)NC(=O)C(C)(C)NC(=O)[C@H](Cc4ccc5ccccc5c4)NC(=O)[C@H](Cc4ccc(OCCN(C)C)cc4)NC(=O)C4(CCOCC4)NC(=O)[C@H](CC(C)C)NC3=O)cn(C)c12 [compound 49] ([X3]L[Thp]Y(Me2NCH2CH2)[2Nal][Aib][Lys(Me,(CH2)4NMe(CH2)4CO)]G-{NH(2-(3-pyridyl)ethyl)}; lactam N-7)	Not met

###

# Assay Protocol: Protease stability in simulated gastric fluids (FaSSGF) (Table 7)
# Type: in vitro ADME
# Test Settings: fassgf with pepsin, 60 min, 37° C., read-out: Remaining percentage of peptide compound, FaSSGF 60 (min)
Numbered stars: 1 amine (or outer) side, 2 acyl side, 3 side chain; on linkers, the order of the positions; unused ones are H or OH. Bridge positions count the residues as written; N and C are the ends. Square brackets hold non-standard residues; d marks the D form. Peptide text beside a SMILES is read from it. * marks the point of attachment. Trp(7-Me) = Cc1cccc2c(C[C@H](N)C(=O)O)c[nH]c12; 2Nal = N[C@@H](Cc1ccc2ccccc2c1)C(=O)O; Suberoyl = O=C(CCCCCCC(=O)[*:2])[*:1]; 3Pal = N[C@@H](Cc1cccnc1)C(=O)O; Thp = NC1(C(=O)O)CCOCC1; Me2NCH2CH2 = CN(C)CC*; Aib = CC(C)(N)C(=O)O; Sar = CNCC(=O)O

Compound	remaining at 1 h, 1 µM
Cc1cccc2c(C[C@@H]3NC(=O)CCCCCCC(=O)NCCCC[C@@H](C(=O)N[C@@H](CC(N)=O)C(=O)N[C@@H](Cc4cccnc4)C(=O)N(C)CC(N)=O)NC(=O)C(C)(C)NC(=O)[C@H](Cc4ccc5ccccc5c4)NC(=O)[C@H](Cc4ccc(OCCN(C)C)cc4)NC(=O)C4(CCOCC4)NC(=O)[C@H](CCC(N)=O)NC3=O)c[nH]c12 [compound 12] ([Trp(7-Me)]Q[Thp]Y(Me2NCH2CH2)[2Nal][Aib]KN[3Pal][Sar]-NH2; linker N-7 via Suberoyl)	104%

###

# Assay Protocol: Protease stability in simulated intestinal fluids (FaSSIF) (Table 7)
# Format: in vitro ADME
# Test Settings: fassif with pancreatin, 60 min, 37° C., read-out: Remaining percentage of peptide compound, FaSSIF 60 (min)
# Description: Studies were carried out in simulated intestinal fluid (SIF) and simulated gastric fluid (SGF) to evaluate gastric stability of the peptide compounds disclosed herein. […] To 76 μL of the Pepsin-SGF buffer, 4 μL of the 20 μM peptide stock solution was added and incubated at 37° C. […] The samples were centrifuged for 20 minutes and an aliquot of the supernatant 100 μL were transferred to a LoBind-MTP plate and analyzed by LCMS/MS. […]
Numbered stars: 1 amine (or outer) side, 2 acyl side, 3 side chain; on linkers, the order of the positions; unused ones are H or OH. Bridge positions count the residues as written; N and C are the ends. Square brackets hold non-standard residues; d marks the D form. Peptide text beside a SMILES is read from it. * marks the point of attachment. Lys(Me,(CH2)4NMe(CH2)4CO) = CN(CCCCC(=O)[*:3])CCCCN(C)CCCC[C@H](N[*:1])C(=O)[*:2]; Trp(7-Me) = Cc1cccc2c(C[C@H](N)C(=O)O)c[nH]c12; αMeLys(Me2) = CN(C)CCCC[C@](C)(N)C(=O)O; 2Nal = N[C@@H](Cc1ccc2ccccc2c1)C(=O)O; 3Pal = N[C@@H](Cc1cccnc1)C(=O)O; Aun = NCCCCCCCCCCC(=O)O; Thp = NC1(C(=O)O)CCOCC1; Me2NCH2CH2 = CN(C)CC*; Aib = CC(C)(N)C(=O)O; Sar = CNCC(=O)O
Readout Label: remaining at 1 h, 1 µM (%)

Compound	Output Unit	Experimental Result
CC(=O)NCCCC[C@@H]1NC(=O)[C@H](Cc2c[nH]c3c(C)cccc23)NC(=O)CCCCCCCCCCNC(=O)CC[C@@H](C(=O)N[C@@H](CC(N)=O)C(=O)N[C@@H](Cc2cccnc2)C(=O)N(C)CC(N)=O)NC(=O)[C@](C)(CCCCN(C)C)NC(=O)[C@H](Cc2ccc3ccccc3c2)NC(=O)[C@H](Cc2ccc(OCCN(C)C)cc2)NC(=O)C2(CCOCC2)NC1=O [compound 21] ([Aun][Trp(7-Me)]K(Ac)[Thp]Y(Me2NCH2CH2)[2Nal][αMeLys(Me2)]EN[3Pal][Sar]-NH2; lactam N-8)	%	97
CC(=O)NCCCC[C@@H]1NC(=O)[C@H](Cc2c[nH]c3c(C)cccc23)NC(=O)CCCCN(C)CCCCN(C)CCCC[C@@H](C(=O)N[C@@H](CC(N)=O)C(=O)N[C@@H](Cc2cccnc2)C(=O)N(C)CC(N)=O)NC(=O)C(C)(C)NC(=O)[C@H](Cc2ccc3ccccc3c2)NC(=O)[C@H](Cc2ccc(OCCN(C)C)cc2)NC(=O)C2(CCOCC2)NC1=O [compound 32] ([Trp(7-Me)]K(Ac)[Thp]Y(Me2NCH2CH2)[2Nal][Aib][Lys(Me,(CH2)4NMe(CH2)4CO)]N[3Pal][Sar]-NH2; lactam N-7)	%	96

###

# Assay Protocol: Protease stability in simulated intestinal fluids (FaSSIF) (Table 7)
# Assay type: in vitro ADME
# Test Settings: fassif with pancreatin, 60 min, 37° C., read-out: Remaining percentage of peptide compound, FaSSIF 60 (min)
# Method: Studies were carried out in simulated intestinal fluid (SIF) and simulated gastric fluid (SGF) to evaluate gastric stability of the peptide compounds disclosed herein. […] To 76 μL of the Pepsin-SGF buffer, 4 μL of the 20 μM peptide stock solution was added and incubated at 37° C. […] The samples were centrifuged for 20 minutes and an aliquot of the supernatant 100 μL were transferred to a LoBind-MTP plate and analyzed by LCMS/MS. […]
Numbered stars: 1 amine (or outer) side, 2 acyl side, 3 side chain; on linkers, the order of the positions; unused ones are H or OH. Bridge positions count the residues as written; N and C are the ends. Square brackets hold non-standard residues; d marks the D form. Peptide text beside a SMILES is read from it. * marks the point of attachment. Lys(Me,(CH2)4NMe(CH2)5CO) = CN(CCCCCC(=O)[*:3])CCCCN(C)CCCC[C@H](N[*:1])C(=O)[*:2]; Lys(Me,(CH2)4NMe(CH2)4CO) = CN(CCCCC(=O)[*:3])CCCCN(C)CCCC[C@H](N[*:1])C(=O)[*:2]; Trp(7-Me) = Cc1cccc2c(C[C@H](N)C(=O)O)c[nH]c12; Trp(1-Me) = Cn1cc(C[C@H](N)C(=O)O)c2ccccc21; αMeLys(Me2) = CN(C)CCCC[C@](C)(N)C(=O)O; 2Nal = N[C@@H](Cc1ccc2ccccc2c1)C(=O)O; X4 = O=C(CCCCCCCCCCCCCCCN[*:1])[*:2]; X1 = O=C(CCCCCCCCCCCCCN[*:1])[*:2]; 3Pal = N[C@@H](Cc1cccnc1)C(=O)O; Aun = NCCCCCCCCCCC(=O)O; Thp = NC1(C(=O)O)CCOCC1; Me2NCH2CH2 = CN(C)CC*; Aib = CC(C)(N)C(=O)O; Sar = CNCC(=O)O
Mark each entry True if its remaining at 1 h, 1 µM sits below 90%, and False for all others.

Compound	Assigned Label
Cc1cccc2c(C[C@@H]3NC(=O)CCCCCCCCCCNC(=O)CC[C@@H](C(=O)N[C@@H](CC(N)=O)C(=O)N[C@@H](Cc4cccnc4)C(=O)N(C)CC(N)=O)NC(=O)[C@](C)(CCCCN(C)C)NC(=O)[C@H](Cc4ccc5ccccc5c4)NC(=O)[C@H](Cc4ccc(OCCN(C)C)cc4)NC(=O)C4(CCOCC4)NC(=O)[C@H](CCC(N)=O)NC3=O)c[nH]c12 [compound 20] ([Aun][Trp(7-Me)]Q[Thp]Y(Me2NCH2CH2)[2Nal][αMeLys(Me2)]EN[3Pal][Sar]-NH2; lactam N-8)	False
CN(C)CCOc1ccc(C[C@@H]2NC(=O)C3(CCOCC3)NC(=O)[C@H](CCC(N)=O)NC(=O)[C@H](Cc3cn(C)c4ccccc34)NC(=O)CCCCCN(C)CCCCN(C)CCCC[C@@H](C(=O)N[C@@H](CC(N)=O)C(=O)N[C@@H](Cc3cccnc3)C(=O)N(C)CC(N)=O)NC(=O)C(C)(C)NC(=O)[C@H](Cc3ccc4ccccc4c3)NC2=O)cc1 [compound 33] ([Trp(1-Me)]Q[Thp]Y(Me2NCH2CH2)[2Nal][Aib][Lys(Me,(CH2)4NMe(CH2)5CO)]N[3Pal][Sar]-NH2; lactam N-7)	False
CC(=O)NCCCC[C@@H]1NC(=O)[C@H](Cc2c[nH]c3c(C)cccc23)NC(=O)CCCCCCCCCCNC(=O)CC[C@@H](C(=O)N[C@@H](CC(N)=O)C(=O)N[C@@H](Cc2cccnc2)C(=O)N(C)CC(N)=O)NC(=O)C(C)(C)NC(=O)[C@H](Cc2ccc3ccccc3c2)NC(=O)[C@H](Cc2ccc(OCCN(C)C)cc2)NC(=O)C2(CCOCC2)NC1=O [compound 16] ([Aun][Trp(7-Me)]K(Ac)[Thp]Y(Me2NCH2CH2)[2Nal][Aib]EN[3Pal][Sar]-NH2; lactam N-8)	True
Cc1cccc2c(C[C@@H]3NC(=O)CCCCCCCCCCCCCNC(=O)CC[C@@H](C(=O)N[C@@H](CC(N)=O)C(=O)N[C@@H](Cc4cccnc4)C(=O)N(C)CC(N)=O)NC(=O)C(C)(C)NC(=O)[C@H](Cc4ccc5ccccc5c4)NC(=O)[C@H](Cc4ccc(OCCN(C)C)cc4)NC(=O)C4(CCOCC4)NC(=O)[C@H](CCC(N)=O)NC3=O)c[nH]c12 [compound 1] ([X1][Trp(7-Me)]Q[Thp]Y(Me2NCH2CH2)[2Nal][Aib]EN[3Pal][Sar]-NH2; lactam N-8)	False
Cc1cccc2c(C[C@@H]3NC(=O)CCCCCCCCCCCCCCCNC(=O)CC[C@@H](C(=O)N[C@@H](CC(N)=O)C(=O)N[C@@H](Cc4cccnc4)C(=O)N(C)CC(N)=O)NC(=O)C(C)(C)NC(=O)[C@H](Cc4ccc5ccccc5c4)NC(=O)[C@H](Cc4ccc(OCCN(C)C)cc4)NC(=O)C4(CCOCC4)NC(=O)[C@H](CCC(N)=O)NC3=O)c[nH]c12 [compound 3] ([X4][Trp(7-Me)]Q[Thp]Y(Me2NCH2CH2)[2Nal][Aib]EN[3Pal][Sar]-NH2; lactam N-8)	True
CC(=O)NCCCC[C@@H]1NC(=O)[C@H](Cc2c[nH]c3c(C)cccc23)NC(=O)CCCCN(C)CCCCN(C)CCCC[C@@H](C(=O)N[C@@H](CC(N)=O)C(=O)N[C@@H](Cc2cccnc2)C(=O)N(C)CC(N)=O)NC(=O)[C@](C)(CCCCN(C)C)NC(=O)[C@H](Cc2ccc3ccccc3c2)NC(=O)[C@H](Cc2ccc(OCCN(C)C)cc2)NC(=O)C2(CCOCC2)NC1=O [compound 47] ([Trp(7-Me)]K(Ac)[Thp]Y(Me2NCH2CH2)[2Nal][αMeLys(Me2)][Lys(Me,(CH2)4NMe(CH2)4CO)]N[3Pal][Sar]-NH2; lactam N-7)	False
CN(C)CCOc1ccc(C[C@@H]2NC(=O)C3(CCOCC3)NC(=O)[C@H](CCC(N)=O)NC(=O)[C@H](Cc3c[nH]c4ccccc34)NC(=O)CCCCN(C)CCCCN(C)CCCC[C@@H](C(=O)N[C@@H](CO)C(=O)N[C@@H](Cc3cccnc3)C(=O)N(C)CC(N)=O)NC(=O)C3(CCOCC3)NC(=O)[C@H](Cc3ccc4ccccc4c3)NC2=O)cc1 [compound 43] (WQ[Thp]Y(Me2NCH2CH2)[2Nal][Thp][Lys(Me,(CH2)4NMe(CH2)4CO)]S[3Pal][Sar]-NH2; lactam N-7)	False
